Reported Log SP by item:
# protocol_description: Sweet potency as logarithm of sweet potency (log SP) relative to sucrose
# Type: functional

The following compounds have reported results that may help.
CCC[C@@H](COC(C)=O)NC(=O)[C@H](N)CC(=O)O = 0.66
CC(C)COC(=O)[C@H](CO)NC(=O)[C@H](N)CC(=O)O = 2.21
CC(C)CC[C@H](C)NC(=O)[C@H](N)CC(=O)O = 1.85

Exercise: Entry `COC[C@@H](COC(C)=O)NC(=O)[C@H](N)CC(=O)O` has what Log SP?
Key: 0.48

Exercise: Follow-up item: `CCOC(=O)[C@H](NC(=O)[C@@H](N)CC(=O)O)[C@@H](C)O`
Key: 0.66

Exercise: Also `CCC[C@H](NC(=O)[C@H](N)CC(=O)O)C(=O)OC(C)C` , if possible.
Key: 1.43

Exercise: Query `COC(=O)CNC(=O)[C@H](N)CC(=O)O` next
Key: 0.68

Exercise: And then `CC(=O)OC[C@H](CO)NC(=O)[C@H](N)CC(=O)O` , what is it?
Key: 1.23

Exercise: Then this compound: `CCCCOC(=O)[C@H](CO)NC(=O)[C@H](N)CC(=O)O`
Key: 1.75

Exercise: Another compound: `CCC(=O)OC[C@@H](NC(=O)[C@H](N)CC(=O)O)C(C)C`
Key: 1.6

Exercise: Try this compound next: `CC(=O)OCCNC(=O)[C@H](N)CC(=O)O`
Key: 0.28

----------
# protocol_description: Sweet potency as logarithm of sweet potency (log SP) relative to sucrose
# Assay type: functional
# Condition met = Log SP below 1 (exclusive); Condition not met = Log SP at/above 1

Here are 6 compounds together with their reported answers.
COC(=O)[C@H](NC(=O)[C@@H](N)CC(=O)O)[C@@H](C)O = Condition met
CCC(=O)OCCNC(=O)[C@H](N)CC(=O)O = Condition met
CCC(=O)OC[C@H](CC)NC(=O)[C@H](N)CC(=O)O = Condition not met
CCOCC[C@H](C)NC(=O)[C@H](N)CC(=O)O = Condition not met
CCOC(=O)C(NC(=O)[C@@H](N)CC(=O)O)C(=O)OC1CCCCC1C (some centres undefined) = Condition not met
C[C@@H](CC(=O)OC1CCCCC1)NC(=O)[C@H](N)CC(=O)O = Condition met

Exercise: Here's an entry: `COC(=O)[C@@H](CSC(C)(C)C)NC(=O)[C@H](N)CC(=O)O` . Is its Log SP below 1?
Key: Condition not met

Exercise: Moving on to `COC(=O)[C@H](NC(=O)[C@H](N)CC(=O)O)C(=O)OC(C)(C)C`
Key: Condition not met

Exercise: Moving on to the next compound: `COC(=O)[C@H](NC(=O)[C@H](N)CC(=O)O)C(=O)OC1CCCCC1`
Key: Condition not met

Exercise: Next: `CC[C@@H](COC(=O)C(C)C)NC(=O)[C@H](N)CC(=O)O`
Key: Condition not met

Exercise: What do you get for CC1CCC1C(=O)OC[C@H](C)NC(=O)[C@H](N)CC(=O)O (some centres undefined) ?
Key: Condition not met

Exercise: Try the compound CCC(C)C(=O)OC[C@H](C)NC(=O)[C@H](N)CC(=O)O (some centres undefined)
Key: Condition not met

Exercise: // same read-out, input: `CCOC(=O)[C@H](NC(=O)[C@H](N)CC(=O)O)C(=O)OC(C)(C)C`
Key: Condition not met

Exercise: Now the same for `CCC(CC)C(=O)OC[C@H](C)NC(=O)[C@H](N)CC(=O)O`
Key: Condition not met

Exercise: What do you get for `CCCCOC(=O)[C@H](NC(=O)[C@@H](N)CC(=O)O)[C@@H](C)O` ?
Key: Condition not met
